Assay: Toxicokinetics of oral AGN 194310 in rats (drug in blood by GC/MS)
Format: in vivo, rat
Conditions: both sexes, Sprague-Dawley, rat, whole blood, po, 0.15 mg/kg/day, 0.01% AGN 194310 (0.15 mg/kg/day), Day 7, mean ± SD, N = 8
observation type: Cmax (ng/mL)
Give the quantity in ng/mL, number only.

stdin: Item under review: CCc1ccc(C2=CC(C)(C)Sc3ccc(C#Cc4ccc(C(=O)O)cc4)cc32)cc1 [AGN 194310] . Reported Cmax?
stdout: 43.1

====

Experiment: Toxicokinetics of oral AGN 194310 in rats (drug in blood by GC/MS)
Type: in vivo, rat
Settings: both sexes, Sprague-Dawley, rat, whole blood, po, 0.15 mg/kg/day, Day 7, mean ± SEM, N = 8, read-out: AUC24 hr
observation type: AUC(0-t) (ng·h/mL)
Supply the numeric figure in ng·h/mL, leaving out any unit text.

stdin: Which measured AUC(0-t) value corresponds to CCc1ccc(C2=CC(C)(C)Sc3ccc(C#Cc4ccc(C(=O)O)cc4)cc32)cc1 ?
stdout: 668
